System: Plasma
ASSAY_NOTES: Plasma concentration in BALB/c mouse at 10 mg/kg, po
Type: ADME, organism-based
Parameters: dose 10 mg/kg, route oral
RUN_PARAMETERS: in vivo
MEASUREMENT_TYPE: concentration (nM)
Numbers only, in nM.

**Query** I have this molecule here, COc1cc2nccc(Oc3ccc4c(C(=O)Nc5ccc(Cl)cc5)cccc4c3)c2cc1OC , and I need its recorded concentration.
**Result** 490

----------
ASSAY_NOTES: Clearance in Sprague-Dawley rat at 0.25 mg/kg, iv
Format: ADME, organism-based
Parameters: dose 0.25 mg/kg, route intravenous
RUN_PARAMETERS: in vivo
MEASUREMENT_TYPE: clearance (mL/min/kg)
Give bare numbers, in mL/min/kg.

**Query** What does the data say about its clearance? Entry: COc1cc2nccc(Oc3ccc4c(C(=O)Nc5ccc(Cl)cc5)cccc4c3F)c2cc1OC
**Result** 1.67
